Target: Adrenergic β2 (Homo sapiens)
Construct: Adherent H292 cells were removed from tissue culture flasks; endogenous in cells; host or cells: H292 cells
Test Description: Adrenergic β2 mediated cAMP production in H292 cells (AlphaScreen cAMP detection)
Assay type: cell-based
Parameters: key: fraction of formoterol maximum activity (formoterol = 1)
Measurement Setup: Intrinsic Activity as a fraction relative to the maximum activity determined for formoterol
Measurement Type: β2 Int Act

Compound	Target	Data Value
O=C(CCNCCc1cccc(F)c1F)N(CCNCCc1ccc(O)c2[nH]c(=O)ccc12)C1CCCCC1	Adrenergic β2 (Homo sapiens)	0.95
O=C(CCNCCc1cccc(Cl)c1)N(CCNCCc1ccc(O)c2[nH]c(=O)ccc12)C1CCCCCC1 [Example 3, bis(trifluoroacetate)]	Adrenergic β2 (Homo sapiens)	0.82
O=C(CCOCCc1ccccc1)N(CCNCCc1ccc(O)c2[nH]c(=O)ccc12)C1CCCCC1	Adrenergic β2 (Homo sapiens)	0.93
Cl.O=C(CCOCCc1cccc(F)c1)N(CCNCCc1ccc(O)c2[nH]c(=O)ccc12)C1CCCCC1	Adrenergic β2 (Homo sapiens)	0.92
O=C(CCNCCc1cccc(F)c1)N(CCNCCc1ccc(O)c2[nH]c(=O)ccc12)C1CCCCCC1 [Example 5, bis(trifluoroacetate)]	Adrenergic β2 (Homo sapiens)	0.82
O=C(CCNCCc1cc(F)cc(F)c1)N(CCNCCc1ccc(O)c2[nH]c(=O)ccc12)C1CCCCC1 [Example 15, bis(trifluoroacetate)]	Adrenergic β2 (Homo sapiens)	0.88
O=C1COc2c(CCNCCN(C(=O)CCNCCc3ccc(Cl)c(Cl)c3)C3CCCCCC3)ccc(O)c2N1 [Example 26, bis(trifluoroacetate)]	Adrenergic β2 (Homo sapiens)	0.74

----------
Target: recombinant human α1D receptor (Homo sapiens)
Construct: expressed in transfected cells; host or cells: human embryonic kidney 293 cells (HEK93 [sic]), membranes
Sequence (P25100 1-572): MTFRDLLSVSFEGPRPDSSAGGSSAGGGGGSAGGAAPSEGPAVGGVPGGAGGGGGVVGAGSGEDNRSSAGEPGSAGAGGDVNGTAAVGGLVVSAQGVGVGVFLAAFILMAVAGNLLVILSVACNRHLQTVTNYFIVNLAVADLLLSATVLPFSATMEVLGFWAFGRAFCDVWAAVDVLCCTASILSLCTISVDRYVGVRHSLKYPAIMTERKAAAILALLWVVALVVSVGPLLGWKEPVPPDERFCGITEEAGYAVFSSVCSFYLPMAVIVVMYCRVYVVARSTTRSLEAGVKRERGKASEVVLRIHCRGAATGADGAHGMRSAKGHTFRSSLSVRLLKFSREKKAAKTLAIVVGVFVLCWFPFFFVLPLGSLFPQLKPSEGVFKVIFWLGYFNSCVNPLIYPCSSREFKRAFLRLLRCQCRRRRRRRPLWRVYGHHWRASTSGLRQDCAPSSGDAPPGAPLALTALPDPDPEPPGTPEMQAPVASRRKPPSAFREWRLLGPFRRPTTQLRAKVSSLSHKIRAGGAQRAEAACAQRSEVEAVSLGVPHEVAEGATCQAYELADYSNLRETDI
Test Description: Adrenergic α1D selectivity assay, [3H]-prazosin binding to membranes
Measurement Setup: inhibition of [3H]-prazosin binding, HEK cell membranes, read-out: α1 bind pIC50 (converted)
Measurement Type: IC50 (nM)

Completed entries (count: 2):
Compound	Target	IC50 (nM)
O=C1COc2c(CCNCCN(C(=O)CCNCCc3ccc(Cl)c(Cl)c3)C3CCCCC3)ccc(O)c2N1 [Example 30, bis(trifluoroacetate)]	recombinant human α1D receptor (Homo sapiens)	251
O=C1COc2c(CCNCCN(C(=O)CCNCCc3cc(Cl)ccc3F)C3CCCCC3)ccc(O)c2N1 [Example 34, bis(trifluoroacetate)]	recombinant human α1D receptor (Homo sapiens)	63.1

[1] O=C(CCNCCc1cc(F)cc(F)c1)N(CCNCCc1ccc(O)c2[nH]c(=O)ccc12)C1CCCCC1 [Example 15, bis(trifluoroacetate)]
[2] CCCC[C@@H](C)N(CCNCCc1ccc(O)c2c1OCC(=O)N2)C(=O)CCNCCc1cc(F)cc(Cl)c1 [Example 50, bis(trifluoroacetate)]
[3] CCCC[C@@H](C)N(CCNCCc1ccc(O)c2c1OCC(=O)N2)C(=O)CCNCCc1cc(F)ccc1F [Example 54, bis(trifluoroacetate)]
[4] O=C(CCNCCc1ccc(F)cc1)N(CCNCCc1ccc(O)c2[nH]c(=O)ccc12)C1CCCCCC1 [Example 6, bis(trifluoroacetate)]
In this exercise, place the 4 compounds in ascending sequence of their recorded IC50. Please reply with the labels ordered as requested. Many thanks.
4, 3, 2, 1

----------
Target: Adrenergic β2 (Homo sapiens, UniProt P07550)
Construct: Adherent H292 cells were removed from tissue culture flasks; endogenous in cells; host or cells: H292 cells
Sequence (P07550 whole entry): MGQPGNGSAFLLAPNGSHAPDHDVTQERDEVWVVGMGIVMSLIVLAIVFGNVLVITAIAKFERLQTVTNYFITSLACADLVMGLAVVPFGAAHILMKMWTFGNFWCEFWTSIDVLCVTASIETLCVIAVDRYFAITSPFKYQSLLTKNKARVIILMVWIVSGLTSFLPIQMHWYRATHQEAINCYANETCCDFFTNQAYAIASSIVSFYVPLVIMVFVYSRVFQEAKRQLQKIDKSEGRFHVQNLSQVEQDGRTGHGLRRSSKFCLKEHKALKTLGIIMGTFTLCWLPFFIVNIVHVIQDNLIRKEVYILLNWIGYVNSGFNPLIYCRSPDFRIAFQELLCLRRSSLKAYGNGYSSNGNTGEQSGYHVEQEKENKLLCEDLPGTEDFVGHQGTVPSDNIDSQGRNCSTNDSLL
Test Description: Adrenergic β2 mediated cAMP production in H292 cells (AlphaScreen cAMP detection)
Type: cell-based
Parameters: key: fraction of formoterol maximum activity (formoterol = 1)
Measurement Setup: Intrinsic Activity as a fraction relative to the maximum activity determined for formoterol
Counter-ions that a name gives are not always drawn.
Measurement Type: β2 Int Act

Completed entries (count: 8):
Compound	β2 Int Act
O=C1COc2c(CCNCCN(C(=O)CCNCCc3cc(F)cc(F)c3)C3CCCCC3)ccc(O)c2N1 [Example 35, bis(trifluoroacetate)]	0.87
O=C1COc2c(CCNCCN(C(=O)CCOCCc3cccc(Cl)c3)C3CCCCC3)ccc(O)c2N1 [Example 77, trifluoroacetate]	0.97
O=C1COc2c(CCNCCN(C(=O)CCNCCc3cccc(F)c3)C3CCCCCC3)ccc(O)c2N1 [Example 69, bis(trifluoroacetate)]	0.88
CCCC[C@@H](C)N(CCNCCc1ccc(O)c2c1OCC(=O)N2)C(=O)CCNCCc1cc(F)ccc1C [Example 57, bis(trifluoroacetate)]	0.91
CCCC[C@@H](C)N(CCNCCc1ccc(O)c2c1OCC(=O)N2)C(=O)CCNCCc1ccccc1 [Example 25, bis(trifluoroacetate)]	0.9
CCCC[C@@H](C)N(CCNCCc1ccc(O)c2c1OCC(=O)N2)C(=O)CCNCCc1cc(F)cc(F)c1 [Example 51, bis(trifluoroacetate)]	0.94
O=C1COc2c(CCNCCN(C(=O)CCNCCc3cc(F)cc(F)c3)C3CCCCCC3)ccc(O)c2N1 [Example 65, bis(trifluoroacetate)]	0.93
O=C(CCNCCc1cccc(Cl)c1)N(CCNCCc1ccc(O)c2[nH]c(=O)ccc12)C1CCCCC1 [Example 13, bis(trifluoroacetate)]	0.86

[I] CCCC[C@@H](C)N(CCNCCc1ccc(O)c2c1OCC(=O)N2)C(=O)CCNCCc1cc(F)ccc1F [Example 54, bis(trifluoroacetate)]
[II] O=C(CCNCCc1cccc(-c2ccccc2)c1)N(CCNCCc1ccc(O)c2[nH]c(=O)ccc12)C1CCCCCC1 [Example 12, bis(trifluoroacetate)]
Choose between I and II : whose measured β2 Int Act value is numerically larger? In your reply, give the label of the chosen option.
I

----------
Target: recombinant human adrenergic beta 1 receptors (Homo sapiens)
Construct: purchased Euroscreen
Sequence (P08588 whole entry): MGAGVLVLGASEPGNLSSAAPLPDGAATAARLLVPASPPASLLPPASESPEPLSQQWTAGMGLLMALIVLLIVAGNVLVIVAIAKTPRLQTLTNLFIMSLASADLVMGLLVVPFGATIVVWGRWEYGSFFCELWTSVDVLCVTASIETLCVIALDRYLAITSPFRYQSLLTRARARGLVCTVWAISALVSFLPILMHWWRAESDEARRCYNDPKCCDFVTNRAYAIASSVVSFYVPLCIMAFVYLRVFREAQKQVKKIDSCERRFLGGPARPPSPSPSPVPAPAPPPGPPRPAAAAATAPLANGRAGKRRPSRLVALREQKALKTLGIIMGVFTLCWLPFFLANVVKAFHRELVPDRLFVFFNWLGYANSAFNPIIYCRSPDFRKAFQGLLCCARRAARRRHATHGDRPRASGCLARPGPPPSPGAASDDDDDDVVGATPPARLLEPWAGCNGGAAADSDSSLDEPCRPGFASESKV
Test Description: Adrenergic β1 selectivity assay, [125I]-Iodocyanopindolol binding to membranes
Measurement Setup: inhibition of [125I]-Iodocyanopindolol binding, read-out: β1 bind pIC50 (converted)
Description: Membranes containing recombinant human adrenergic beta 1 receptors were obtained from Euroscreen. […] Assays were performed in U-bottomed 96-well polypropylene plates. […] Five washes with 250 μL wash buffer (50 mM HEPES, 1 mM EDTA, 120 mM NaCl, pH 7.4) were performed at 4° C. to remove unbound radioactivity. […] The plates were sealed (TopSeal A) and filter-bound radioactivity was measured with a scintillation counter (TopCount, Packard BioScience) using a 3-minute counting protocol. […]
Where a name gives a salt, the structure may show the parent alone.
Measurement Type: IC50 (µM)

Compound	IC50, µM
O=C1COc2c(CCNCCN(C(=O)CCNCCc3cc(F)ccc3F)C3CCCCCC3)ccc(O)c2N1 [Example 64, bis(trifluoroacetate)]	1.26
CCCC[C@@H](C)N(CCNCCc1ccc(O)c2c1OCC(=O)N2)C(=O)CCNCCc1ccc(F)c(Cl)c1 [Example 48, bis(trifluoroacetate)]	0.794
O=C1COc2c(CCNCCN(C(=O)CCNCCc3cccc(F)c3)C3CCCCCC3)ccc(O)c2N1 [Example 69, bis(trifluoroacetate)]	0.794
O=C1COc2c(CCNCCN(C(=O)CCOCCc3ccccc3F)C3CCCCC3)ccc(O)c2N1 [Example 76, trifluoroacetate]	2
O=C1COc2c(CCNCCN(C(=O)CCNCCc3ccc(F)c(Cl)c3)C3CCCCC3)ccc(O)c2N1 [Example 37, bis(trifluoroacetate)]	1

[P] O=C1COc2c(CCNCCN(C(=O)CCNCCc3cc(F)cc(F)c3)C3CCCCCC3)ccc(O)c2N1 [Example 65, bis(trifluoroacetate)]
[Q] Cc1cc(CCNCCC(=O)N(CCNCCc2ccc(O)c3c2OCC(=O)N3)C2CCCCCC2)ccc1F [Example 62, bis(trifluoroacetate)]
[R] CCCC[C@@H](C)N(CCNCCc1ccc(O)c2c1OCC(=O)N2)C(=O)CCNCCc1cccc(Cl)c1 [Example 44, bis(trifluoroacetate)]
# rank_down: sort by IC50, max first Please reply with the labels ordered as requested. Many thanks.
P, R, Q

[1] O=C1COc2c(CCNCCN(C(=O)CCNCCc3cccc(Cl)c3F)C3CCCCC3)ccc(O)c2N1 [Example 39, bis(trifluoroacetate)]
[2] CCCC[C@@H](C)N(CCNCCc1ccc(O)c2c1OCC(=O)N2)C(=O)CCNCCc1ccccc1 [Example 25, bis(trifluoroacetate)]
Choose between 1 and 2 : whose measured IC50 value is numerically larger? In your reply, give the label of the chosen option.
2
